- Test system: panel of nearly 500 cancer cell lines
- EXPERIMENT: Cancer Cell Line Encyclopedia profiling, 3-day CellTiter-Glo
- Format: cell-based
- SETUP_CONDITIONS: Homo sapiens, SCC-9
MEASUREMENT_NAME: IC50

Req: What value of IC50 has been recorded for this entry: CN(C)C(=O)c1cc2cnc(Nc3ccc(N4CCNCC4)cn3)nc2n1C1CCCC1 [Ribociclib]
Resp: > 8 µM

====

- Test system: panel of nearly 500 cancer cell lines
- EXPERIMENT: Cancer Cell Line Encyclopedia profiling, 3-day CellTiter-Glo
- Type: cell-based
- SETUP_CONDITIONS: amo1 (haematopoietic_and_lymphoid_tissue); read-out: IC50
pIC50: −log10 of the molar value.
MEASUREMENT_NAME: pIC50

Req: Lab note: need pIC50 with panel of nearly 500 cancer cell lines for entry CC(=O)c1c(C)c2cnc(Nc3ccc(N4CCNCC4)cn3)nc2n(C2CCCC2)c1=O [Palbociblib] , please look it up.
Resp: < 5.10
